# assay_system: Glycogen phosphorylase, muscle form (Oryctolagus cuniculus, UniProt P00489)
# Sequence (P00489 whole entry): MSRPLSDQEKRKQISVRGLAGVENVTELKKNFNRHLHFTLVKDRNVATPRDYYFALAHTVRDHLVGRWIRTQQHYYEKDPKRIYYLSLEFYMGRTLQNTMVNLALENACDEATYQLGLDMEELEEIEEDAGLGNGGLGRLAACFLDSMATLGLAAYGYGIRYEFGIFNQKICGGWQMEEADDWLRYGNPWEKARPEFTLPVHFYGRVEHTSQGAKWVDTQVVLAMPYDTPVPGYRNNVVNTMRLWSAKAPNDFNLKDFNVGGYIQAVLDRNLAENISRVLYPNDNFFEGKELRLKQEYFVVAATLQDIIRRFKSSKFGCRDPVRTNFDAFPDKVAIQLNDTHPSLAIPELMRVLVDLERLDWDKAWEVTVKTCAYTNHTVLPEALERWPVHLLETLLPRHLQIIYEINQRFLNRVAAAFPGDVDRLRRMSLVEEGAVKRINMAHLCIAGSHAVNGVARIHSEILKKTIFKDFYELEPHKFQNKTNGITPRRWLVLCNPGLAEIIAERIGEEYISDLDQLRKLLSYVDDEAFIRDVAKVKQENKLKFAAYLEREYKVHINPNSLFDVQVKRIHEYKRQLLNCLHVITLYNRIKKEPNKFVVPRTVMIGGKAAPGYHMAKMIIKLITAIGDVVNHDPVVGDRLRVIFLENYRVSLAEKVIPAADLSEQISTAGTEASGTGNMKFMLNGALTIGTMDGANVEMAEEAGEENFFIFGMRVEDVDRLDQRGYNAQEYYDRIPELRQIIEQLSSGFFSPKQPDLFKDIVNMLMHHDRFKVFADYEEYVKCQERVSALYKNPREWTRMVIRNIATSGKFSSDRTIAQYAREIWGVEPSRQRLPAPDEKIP
# measurement_protocol: Inhibition of rabbit muscle glycogen phosphorylase-a assessed as release of inorganic phosphate using glucose-1-phosphate as substrate in presence of glycogen by spectrophotometric method
pKi: −log10 of the molar value.
Form field: pKi (one value per entry).
value_kind: pKi

[
  {
    "structure_as_smiles": "O=C(O)c1ccc2cc(-c3n[nH]c([C@@H]4O[C@H](CO)[C@@H](O)[C@H](O)[C@H]4O)n3)ccc2c1",
    "value_kind": "pKi",
    "endpoint_value": 6.11
  },
  {
    "structure_as_smiles": "O=C(O)c1ccc(-c2ccc(-c3n[nH]c([C@@H]4O[C@H](CO)[C@@H](O)[C@H](O)[C@H]4O)n3)cc2)cc1",
    "value_kind": "pKi",
    "endpoint_value": 6.01
  },
  {
    "structure_as_smiles": "OC[C@H]1O[C@@H](c2nc(-c3ccc4c(c3)Cc3ccccc3-4)n[nH]2)[C@H](O)[C@@H](O)[C@@H]1O",
    "value_kind": "pKi",
    "endpoint_value": 6.08
  },
  {
    "structure_as_smiles": "OC[C@H]1O[C@@H](c2nc(-c3ccc(-c4ccccc4)cc3)n[nH]2)[C@H](O)[C@@H](O)[C@@H]1O",
    "value_kind": "pKi",
    "endpoint_value": 5.68
  },
  {
    "structure_as_smiles": "OC[C@H]1O[C@@H](c2nc(-c3cccc4ccccc34)n[nH]2)[C@H](O)[C@@H](O)[C@@H]1O",
    "value_kind": "pKi",
    "endpoint_value": 5.47
  }
]
